- TEST_SYSTEM: T1, Human IL-11 (human, UniProt P20809 22-199)
- T1 construct: Recombinant human IL-11 (GenScript Cat. No. Z03108-1) or IL-11 secreted by human cells; the mature form is said to have 178 residues; also called recombinant human IL-11; endogenously produced IL-11
- T1 sequence: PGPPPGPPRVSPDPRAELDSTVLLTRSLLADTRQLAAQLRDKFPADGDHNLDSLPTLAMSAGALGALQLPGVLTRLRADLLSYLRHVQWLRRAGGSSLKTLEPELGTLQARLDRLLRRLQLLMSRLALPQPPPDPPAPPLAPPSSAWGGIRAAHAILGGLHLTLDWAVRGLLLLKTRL
- METHOD_SUMMARY: ELISA on coated recombinant human IL-11 (100 ng/well), scFv-Fc
- Method: The light chain shuffled anti-IL-11 antibodies were analysed to determine the EC50 for binding to human IL-11 by ELISA according to standard methods. Briefly, wells of microtiter plates were coated with recombinant human IL-11 (100 ng/well), scFv-Fc comprising the VH and VL domains of the clones were added in a dilution series and antibody binding was detected using a polyclonal antibody detection system.
Examples of binders with documented EC50 follow.
State the answer as a number, implicitly in µg/mL.

INSERT INTO assay_data (binder, endpoint_value) VALUES
  ('YU100-E09 (antibody) QVQLVESGGGVVQPGRSLRLSCAASGFTFSSYAMHWVRQAPGKGLEWVAVISYDGSNKYYADSVKGRFTISRDNSKNTLYLQMNSLRAEDTAVYYCARIMGYDYGDYDVVDYWGQGTLVTVSSGSASAPKLEEGEFSEARVQSALTQPRSVSGSPGQSVTISCTGTSSDVGDYDYVSWYQQHPGKAPKLIIYDVTKRPSGIPDRFSGSKSGNTASLTISGLQAEDEADYYCCSYAGSYTWVFGRGTKLTVL', 0.019);

Here's the next entry for you.
Need EC50, item YU112-H01 (antibody) QVQLVESGGGVVQPGRSLRLSCAASGFTFGSYGMHWVRQAPGKGLEWVAVISYDGSNKYYADSVKGRFTISRDNSKNTLYLQMNSLRAEDTAVYYCAKGSYYFDYWGQGTLVTVSSGSASAPKLEEGEFSEARVETTLTQSPGTLSLSPGERATLSCRASQSVSSSYLAWYQQKPGQAPRLLIYGASSRATGIPDRFSGSGSGTDFTLTISSLQPDDFATYYCQQSYSTPTWTFGQGTKVEIK
0.02
